system: Carrageenin edema in rat's paw; experiment: Carrageenin Edema Test in Rat's Paw (anti-inflammatory activity, Table 1); format: in vivo; details: 100 mg/kg oral, hydrochloride, rat
observed property: inhibition in vivo at 100 mg/kg (%)
Report as a plain number; the unit % is understood.

Sample answers from the record:
| compound | reading |
| --- | --- |
| Nc1nn(CCCN2CCOCC2)c2ccccc12 | 50 |
| Oc1ccc2[nH]nc(NCCCN3CCCCC3)c2c1 | 51 |
| Oc1ccc2[nH]nc(NCCCCCCN3CCCCC3)c2c1 | 25 |

The compound identified as `CCN(CC)CCCNc1n[nH]c2c(Cl)cccc12` registered its inhibition in vivo at 100 mg/kg at 57

Lab book: inhibition in vivo at 100 mg/kg of `CCN(CC)CCCNc1n[nH]c2ccc(O)cc12` noted as 52

====

Overview of recorded LD50 for various compounds
assay: in vivo; conditions: mouse, ip, intraperitoneal, hydrochloride, male ddy mice
Write the answer as a number in mg/kg, unit excluded.

// known answers, use as guide
| compound | units label | LD50 |
| --- | --- | --- |
| CN1CCN(CCCNc2nn(CCCN3CCCC3)c3ccc(Cl)cc23)CC1 | mg/kg | 299 |
| OC1CCN(CCCNc2n[nH]c3ccc(Cl)cc23)CC1 | mg/kg | 210 |
| CC(CCn1nc(NCCC(C)N2CCCCC2)c2cc(Cl)ccc21)N(C)C (stereo not drawn) | mg/kg | 293 |
| Nc1nn(CCCN2CCOCC2)c2ccccc12 | mg/kg | 261 |
| Oc1ccc2c(c1)c(NCCCN1CCCCC1)nn2CCCN1CCCCC1 | mg/kg | 298 |

Value of LD50 reported for the compound `Nc1nn(CCCN2CCOCC2)c2ccc(O)cc12` is 368

Please fill in: LD50 reported for `Nc1nn(CCN2CCOCC2)c2ccccc12` = 290

Record summary for CC(CCNc1nn(CCC(C)N2CCCCC2)c2ccc(Cl)cc12)N(C)C (stereo not drawn) : reported LD50 = 231

LD50 reported for this compound `OC1CCN(CCCNc2nn(CCCN3CCOCC3)c3ccccc23)CC1` : 288

====

test: in vivo; settings: mouse, ip, intraperitoneal, hydrochloride, male ddy mice
Threshold 300 mg/kg. LD50 below it: T. LD50 at it or above: F.

| compound | category |
| --- | --- |
| CC1CCCC(C)N1CCCn1nc(N)c2cc(O)ccc21 (stereo not shown) | T |

Task: Strictly below 300 mg/kg in LD50? CCN(CC)CCCNc1nn(CCC(C)N2CCCCC2)c2ccc(O)cc12 (stereo not shown)
Result: F

Task: # strict comparison: is reported LD50 < 300 mg/kg? input = `CN1CCN(CCCNc2n[nH]c3ccc(O)cc23)CC1`
Result: T

Task: Dear reviewer, please state whether `Oc1ccc2[nH]nc(NCCCCCCN3CCCCC3)c2c1` has LD50 strictly beneath 300 mg/kg.
Result: T

Task: Determine whether this compound shows LD50 lower than 300 mg/kg (ties excluded): CC(C)CC(CCn1nc(N)c2cc(O)ccc21)N1CCCCC1 (stereo not shown)
Result: T

Task: Input `Nc1nn(CCCN2CCC(Cl)CC2)c2ccc(Cl)cc12` ; condition: LD50 strictly below 300 mg/kg. Does it hold?
Result: T

All values here come from patent US4751302A.
